Source listed as ChEMBL document CHEMBL1212819.

# SYSTEM_TESTED: Cannabinoid receptor 1 (Rattus norvegicus, UniProt P20272)
# Sequence (P20272 whole entry): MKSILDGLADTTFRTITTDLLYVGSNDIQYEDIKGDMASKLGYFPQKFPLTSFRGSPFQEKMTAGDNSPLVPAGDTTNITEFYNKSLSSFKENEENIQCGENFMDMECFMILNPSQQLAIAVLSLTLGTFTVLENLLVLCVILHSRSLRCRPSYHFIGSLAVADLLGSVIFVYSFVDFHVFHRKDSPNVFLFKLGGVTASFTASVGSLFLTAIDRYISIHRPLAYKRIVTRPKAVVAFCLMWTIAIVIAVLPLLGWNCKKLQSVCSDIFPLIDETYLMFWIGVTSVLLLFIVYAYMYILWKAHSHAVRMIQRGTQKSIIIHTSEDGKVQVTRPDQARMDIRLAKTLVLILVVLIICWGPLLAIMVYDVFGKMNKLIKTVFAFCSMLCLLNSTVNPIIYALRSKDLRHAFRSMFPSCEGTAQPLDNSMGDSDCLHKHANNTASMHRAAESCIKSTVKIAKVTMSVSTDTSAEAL
# PROTOCOL_DETAILS: Displacement of [3H]CP-55940 from CB1 receptor in rat brain
# Assay type: tissue-based
# ASSAY_CONDITIONS: read-out: Ki
PARAMETER: Ki (µM)
Give a bare numeral; the unit µM is implied.

Documented Ki of `CC1(C)Oc2cc(CNC34CC5CC(CC(C5)C3)C4)cc(O)c2[C@@H]2C[C@H](O)CC[C@H]21` : 150

Documented Ki of `CC1(C)Oc2cc(N3C4CC5CC3CC(C4)O5)cc(O)c2[C@@H]2C[C@H](O)CC[C@H]21` : 1.8

Documented Ki of CC1(C)Oc2cc(C(=O)NC3C4CC5CC(C4)CC3C5)cc(O)c2[C@@H]2C[C@H](O)CC[C@H]21 (some centres undefined) : 15

Documented Ki of CC1(C)Oc2cc(CNC3C4CC5CC(C4)CC3C5)cc(O)c2[C@@H]2C[C@H](O)CC[C@H]21 (some centres undefined) : 150
